Cited source for all entries: PubChem BioAssay (Tox21)

# ASSAY_COMMENT: qHTS assay to identify small molecule agonists of the sonic hedgehog signaling (Shh) pathway - cell viability counter screen (AID 1259366); note: nearly all actives have a fitted effect of over 50% in size
# ASSAY_CONDITIONS: NIH/3T3 Gli1-Luc viability, CellTiter-Fluor, 24 h; series mostly up to 92.4 µM
Results filed as inconclusive are left out. Calls of active or inactive are those of the source. Calls come from the whole dose curve; as a rule, active = well fitted cell-killing curve with a large enough effect in the repeat runs; inconclusive = weak or mixed curves, or effect the other way; inactive = flat fitted curve, though single readings scatter.
Use one of these outcomes when replying: 1 (yes) (active), 0 (no) (inactive)

COMPOUND	CLASSIFICATION
Cc1ncc2n1-c1ccc(Cl)cc1C(c1ccccc1F)=NC2	0 (no)

I would be grateful if you could indicate the recorded call for CC(COc1ccc(Oc2ccccc2)cc1)Oc1ccccn1 (centres undefined) .
0 (no)

# iterate: `CCCCOC(=O)c1ccccc1N`
0 (no)

# iterate: `CCOC(=O)C1(c2ccccc2)CCN(CCc2ccc(N)cc2)CC1`
0 (no)

---

# TARGET_SYSTEM: Voltage-gated inwardly rectifying potassium channel KCNH2 (Homo sapiens)
# ASSAY_COMMENT: Human Ether-a-go-go-Related Gene (hERG) channel small molecule antagonists: fluorescence cell-based qHTS assay (AID 1671200); note: nearly all actives have a fitted effect of over 50% in size
# ASSAY_CONDITIONS: hERG-U2OS cells, FluxOR thallium flux fluorescence; series mostly up to 76.8 µM
Results filed as inconclusive are left out. Activity calls are given as the source filed them. The call rests on the fitted dose curve; in most records, active means well fitted inhibition curve with a large enough effect in the repeat runs; inconclusive means weak or mixed curves; inactive means flat fitted curve, though single readings scatter.
Use one of these outcomes when replying: active, inactive

SMILES_STRUCTURE	CLASSIFICATION
COC(=O)c1c(C(F)F)nc(C(F)(F)F)c(C2=NCCS2)c1CC(C)C	inactive

I would be grateful if you could indicate the recorded call for `CC(C)[N+](=O)[O-]` .
inactive

# iterate: `CCNc1nc(NC(C)C)nc(OC)n1`
inactive

# iterate: `CN1CCC(N(Cc2ccccc2)c2ccccc2)CC1`
active

---

# TARGET_SYSTEM: Voltage-gated inwardly rectifying potassium channel KCNH2 (Homo sapiens)
# ASSAY_COMMENT: Human Ether-a-go-go-Related Gene (hERG) channel small molecule antagonists: fluorescence cell-based qHTS assay (AID 1671200); note: nearly all actives have a fitted effect of over 50% in size
# ASSAY_CONDITIONS: hERG-U2OS cells, FluxOR thallium flux fluorescence; series mostly up to 76.8 µM
# Description: National Center for Advancing Translational Sciences [NCATS] U.S. Environmental Protection Agency [EPA] National Institutes of Environmental Health Sciences [NIEHS] National Toxicology Program [NTP] U.S. Food and Drug Administration [FDA] Mutations in the hERG channel cause Long QT (LQT) syndrome. LQT syndrome is a cardiac disorder which can cause ventricle arrhythmia and sudden death. Additionally, compounds which block the hERG channel can cause acquired LQT syndrome. […]
Records with an inconclusive call do not appear. Active and inactive are the calls of the source. Calls follow the shape of the dose curve; as a rule, active = well fitted inhibition curve with a large enough effect in the repeat runs; inconclusive = weak or mixed curves; inactive = flat fitted curve, though single readings scatter.
Use one of these outcomes when replying: active, inactive

I would be grateful if you could indicate the recorded call for CC(C)(C)NCC(O)c1cc(Cl)c(N)c(Cl)c1 (stereo not given) .
inactive

---

# ASSAY_COMMENT: qHTS assay to identify small molecule antagonists of the retinoid-related orphan receptor gamma (ROR-gamma) signaling pathway - cell viability counter screen (AID 1159520); note: nearly all actives have a fitted effect of over 50% in size
# ASSAY_CONDITIONS: Tet-on RORgamma CHO cells viability, ATP luminescence, 16 h; series mostly up to 92.4 µM
Inconclusive results are not listed. The source made the active and inactive calls. Calls come from the whole dose curve; as a rule, active = well fitted cell-killing curve with a large enough effect in the repeat runs; inconclusive = weak or mixed curves, or effect the other way; inactive = no such curve, though single readings can be large or run the other way.
Use one of these outcomes when replying: active, inactive

COMPOUND	CLASSIFICATION
c1cc[c]([Hg][c]2ccccc2)cc1	active

I would be grateful if you could indicate the recorded call for `COc1cccc2c1cc([N+](=O)[O-])c1c(C(=O)O)cc3c(c12)OCO3` .
active

# iterate: `CCC1(c2ccccc2)C(=O)NC(=O)NC1=O`
inactive

# iterate: `CCSC(=O)N(CC)C1CCCCC1`
inactive

# iterate: `C=CCC1=C(C)[C@@H](OC(=O)[C@@H]2[C@@H](C=C(C)C)C2(C)C)CC1=O`
active

# iterate: `OCCBr`
inactive

# iterate: `C#CCN1C(=O)COc2cc(F)c(N3C(=O)C4=C(CCCC4)C3=O)cc21`
inactive

# iterate: `CCOP(=S)(OCC)Oc1ncn(-c2ccccc2)n1`
inactive

# iterate: `CC(C)(C)OC(=O)c1ncn2c1[C@@H]1CCCN1C(=O)c1c(Br)cccc1-2`
inactive

# iterate: `CCC(C)(C)c1cc(-n2nc3ccccc3n2)c(O)c(C(C)(C)CC)c1`
inactive

# iterate: `CC1(C)CON(Cc2ccccc2Cl)C1=O`
inactive

# iterate: CC(C)CC(N(C)C)C1(c2ccc(Cl)cc2)CCC1 (stereo not drawn)
inactive

# iterate: `N#Cc1ccncc1`
inactive
